Test Target: T1, IL-6R-Fc 항원 (IL-6R full domain 단백질) (human, UniProt P08887 20-365)
T1 construct: domain: IL-6R full domain; Expressed transiently in HEK293E and purified from the supernatant; also called IL-6R 항원; not shown: Fc part from expression vector pYK 604
T1 sequence (looked up): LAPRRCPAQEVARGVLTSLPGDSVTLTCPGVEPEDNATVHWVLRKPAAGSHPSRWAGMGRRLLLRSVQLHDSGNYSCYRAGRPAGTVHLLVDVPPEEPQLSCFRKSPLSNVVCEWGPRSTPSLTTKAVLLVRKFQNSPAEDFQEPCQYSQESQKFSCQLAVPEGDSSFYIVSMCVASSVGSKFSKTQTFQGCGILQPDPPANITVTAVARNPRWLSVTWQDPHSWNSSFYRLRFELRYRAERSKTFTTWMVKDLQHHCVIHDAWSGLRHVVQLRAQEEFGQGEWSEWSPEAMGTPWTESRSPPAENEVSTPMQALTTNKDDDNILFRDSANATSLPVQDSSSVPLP
Test Summary: ELISA, coated IL-6R 100 ng/well, anti-Fab-HRP
Reported Metric: OD 490 nm at 3.125 nM antibody (OD490)
Give the quantity in OD490, number only.

Worked examples follow.
>>> observed_value("항 IL-6R 단클론 항체 F2 (IgG) (antibody, V domains shown, Phage clone converted to whole IgG) VH: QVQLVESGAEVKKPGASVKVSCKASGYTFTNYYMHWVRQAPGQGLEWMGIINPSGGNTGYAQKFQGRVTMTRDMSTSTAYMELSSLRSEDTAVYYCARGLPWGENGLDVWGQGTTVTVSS VL: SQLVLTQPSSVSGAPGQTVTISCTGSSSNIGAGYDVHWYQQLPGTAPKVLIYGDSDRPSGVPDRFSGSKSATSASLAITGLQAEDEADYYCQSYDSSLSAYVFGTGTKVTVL")
2.72
>>> observed_value("항 IL-6R 단클론 항체 B10 (IgG) (antibody, V domains shown, Phage clone converted to whole IgG) VH: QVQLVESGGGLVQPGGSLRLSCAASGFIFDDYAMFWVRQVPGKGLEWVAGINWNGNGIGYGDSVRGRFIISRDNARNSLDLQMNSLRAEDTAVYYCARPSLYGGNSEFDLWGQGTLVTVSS VL: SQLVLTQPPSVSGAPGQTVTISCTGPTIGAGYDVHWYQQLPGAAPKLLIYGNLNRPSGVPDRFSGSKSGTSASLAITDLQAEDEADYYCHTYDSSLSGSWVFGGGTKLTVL")
0.761
>>> observed_value("항 IL-6R 단클론 항체 A7 (IgG) (antibody, V domains shown, Phage clone converted to whole IgG) VH: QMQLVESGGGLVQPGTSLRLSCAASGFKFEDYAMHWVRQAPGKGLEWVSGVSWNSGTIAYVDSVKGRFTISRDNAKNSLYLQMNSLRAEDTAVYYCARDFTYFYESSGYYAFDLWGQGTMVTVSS VL: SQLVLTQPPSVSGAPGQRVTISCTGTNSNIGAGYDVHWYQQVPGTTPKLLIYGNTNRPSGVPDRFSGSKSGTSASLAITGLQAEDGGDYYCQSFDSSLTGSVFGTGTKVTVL")
1.64

Kindly review the next binder as well.
Give the reported value of OD 490 nm at 3.125 nM antibody for this record: 항 IL-6R 단클론 항체 D2 (IgG) (antibody, V domains shown, Phage clone converted to whole IgG) VH: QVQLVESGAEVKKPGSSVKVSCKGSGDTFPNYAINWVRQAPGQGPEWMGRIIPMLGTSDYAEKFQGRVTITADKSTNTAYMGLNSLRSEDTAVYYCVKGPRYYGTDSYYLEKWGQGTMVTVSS VL: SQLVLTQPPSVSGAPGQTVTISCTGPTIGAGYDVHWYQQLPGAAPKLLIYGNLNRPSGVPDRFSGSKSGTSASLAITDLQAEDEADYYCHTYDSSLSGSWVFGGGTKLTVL 0.719
